# Tested on: MS2 coat protein
# Assay Explanation: apparent KD of MS2 coat protein; higher = weaker reporter binding
# Setup Conditions: Eterna round: R107; input ligand: none
Response key: true (1) means apparent KD of MS2 coat protein >= 50 nM; false (0) means apparent KD of MS2 coat protein < 50 nM.

• GGGCGAGUGGCGCGGCGUGCUCCGCUCCGUCGAGGACCGGUACGGCCGCCACUCGACAUGAGGAUCACCCAUGUGCGAGCUCGCG [#1 Exclusion - Tryptophan A Attempt #12 (HarryS)] = true (1)
• GCACGACAUGAGGAUCACCCAUGUGCCGAUACCAGCCGGAUAUACGGCCCUUGGCAGCGGAGUGGAUCCGGAGGACCAUGGGUAA [Same State Theophylline A GF7] = true (1)
• UAGCGAUUUGGUGAUACCAGACGUGUGCAGUCCUCAGACAUGAGGAUCACCCAUGUAUGCGUCCCUUGGCAGCGCUAUGAGGACA [Theo B Ex t6] = false (0)
• ACAUGAGGAUCACCCAUGUACAUGAGGGAAGGAGCGGUACAUGUGCCAGGUAGGUCGCCCAACAGCAUCAGCCAUGUACAACAGG [zqwmullin] = true (1)

Continue with the next sequence.
Ask: Could you please find out whether AAAUAAAUACAUGAGGAUCACCCAUGUGAAGGAGCGCGCGUUAGCGCAGGUAGGUCGCACAUGAACUCCAAAGUGCGAAAGCACA [MAT - Exclusion Arginine A - Mod of Eli - D9] has apparent KD of MS2 coat protein that meets 50 nM or exceeds it?
Result: false (0)

* * *

# Tested on: K4 kissing-loop RNA reporter;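 further: bound reporter read as fluorescence of individual clusters on recovered sequencing chips by microscopy, with normalized cluster intensities fitted with a binding model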
# Assay Explanation: apparent KD of K4 kissing-loop reporter; higher = weaker reporter binding
# Setup Conditions: Eterna round: R107; input ligand: tryptophan 2.4 mM
Value Kind: apparent KD of K4 kissing-loop reporter (µM)
Hi! Could you send only the number? It should be in µM, unit omitted.

- GCUAUCUGAGCCCAGUGAUGUUGAGUGCUGAAGGAUAUGCGAUAGAGCAGAAGGUCAAGAACAUUGUUCGAUUAUCAAAACAAGU [theeternabot_exclusion_KL_FMN_A_35]: 0.328

Ask: // query apparent KD of K4 kissing-loop reporter value for entry `UGACUGGACUGAAGGAGCGCUUAACUCCUAGUGAUGUUAGGAAAACGAGACAAAGUCUCGAAGCAGGUAGGUCGCAGUCUAGUCU`
Result: 0.132

Ask: Input CGCUGGGCGAGUGAUGUUCGCUCACGUGAUACCAGUGCAAUCCAACACCCUUGGCAGCACGCGGGCAGUGAUGUUGUCCUUAGUG [Exclusion Theophylline A GF12]
Result: 0.127

Ask: Note, next up: CCUUCUCAUUUCCGUUAUCAUUGCCUUAGGAAGGAUAUCAUUAUUUUGAGAAGGUCCGUGGUCUAUUUUCCGAGUGAUGUUUGGU [theeternabot_exclusion_KL_FMN_A_45]
Result: 0.248

Ask: Let us now turn to UGUGAUGUGUAGUGUUAUGUUUUGCGGGAUACCAGAGUCUUUUUAUUCCCUUGGCAGCUUGAGUGAUGUUUGAUGCUGUUCUUGU [cxxdmullin]
Result: 0.352

* * *

# Test system: MS2 coat protein
# Assay Explanation: apparent KD of MS2 coat protein; designed switch direction (-1 OFF switch, 1 ON switch): -1; higher = weaker reporter binding
# Setup Conditions: Eterna round: R95; input ligand: FMN 200 uM
Overview of reported apparent KD of MS2 coat protein across a group of sequences:
I only need the number, in nM, no unit after it.

Record excerpt, results attached:
• CUUGUCCGAGGAUAUAUUAUGUGAUACAUGAGGAUCACCCAUGUUAUAUGAUGGAUAUAAAUAGAAGGCGGACGAG [Mat - Exclusion 5 - JL mod - D68] (puzzle: Exclusion 5) = 70.2
• GGUGCGUAUGUGAGGAUAUGCUGGUCCUUGGGUCAGCAGAAGGCACAUGAGGAUCACCCAUGUGGUGUCGUACC [salish99_Bmod_Ex4_026] (puzzle: Brourd's mod of Exclusion 4) = 20.3
• CCGAGGUGGCGGUCCUAUGACAUGAGGAUCACCCAUGUACCUCGCCACGAGCUUUUUGCUCACCUUAUAAUUCUCGG [Ragequen] (puzzle: Sensor v3, turn-off variant 1) = 18.7

Ask: For AUAAUUUAAGUGAGGAUAUACCUAUGGAAACAUAGGUAGAAGGCACAUGAGGAUCACCCAUGUUCCUAUACAUA [Fiskers BMX 4 - 3] (puzzle: Brourd's mod of Exclusion 4) , what is its reported apparent KD of MS2 coat protein?
Result: 22.8

Ask: Query ACGUGAUAUCUGUCGGUGGACAUGAGGAUCACCCAUGUAAGCUCUUUGCUCGUCUUAUAACCCGGUGACAGACCUUC [Xerile] (puzzle: Sensor v3, turn-off variant 1) next
Result: 42.3

* * *

# Tested on: MS2 coat protein
# Assay Explanation: apparent KD of MS2 coat protein, switch OFF state (with FMN for OFF switches, without FMN for ON switches); designed switch direction (-1 OFF switch, 1 ON switch): 1; higher = weaker reporter binding
# Setup Conditions: FMN input: 0 or 200 uM; Eterna round: R93 (includes R88 designs)
Value Kind: apparent KD of MS2 coat protein (nM)
# number only, unit nM dropped from output

Some solved entries appear below for comparison.
- AAAAUACAUGAGGAUCACCCAUGUCCGACAAAUCAAGGAUAUGAUAGCCAAACCAGGCUGUUAGAAGGUGAAAGAA [Esesrien]: 151
- GCACCACAUGAGGAUCACCCAUGUAAAACGUAGCAAGGAUAUGGGCACGGAUAAUUCCGAUCAGAAGGUGUAACGC [Gemaditera]: 35.2
- AGAAAUAAACCGAAGGAUAUCCAAACCUAAACAUGAGGAUCACCCAUGUAAAAGAAAAUAAAAUGGGAGAAGGUCGGAAAUAAGA [Designing denovo 13]: 25.3

Ask: // map GAAAAACAUGAGGAUCACCCAUGUGACAACAUGGGAGGAUAUACGUGGACGAUAGUCAAAGUAGAAGGCCUAAAAG [Garnet 64] to recorded apparent KD of MS2 coat protein (system: MS2 coat protein)
Result: 18.4

Ask: Would you kindly repeat that for AAAAUAAAAUAAAAGGAUAUAAAAUAAAAUACAUGAGGAUCACCCAUGUAUAAAAUAAAAAAAUAAAAGAAGGAAUAAAAAUAAA [SS2 504: MS2 4] ?
Result: 11.2

Ask: Then this sequence: AACAAUCUAUCUGAGGAUAUCAAAAAAAAAACAUGAGGAUCACCCAUGUCUAGGAAAACUAGAUAUGAGAAGGCAGAUAGAUUGA [SS1 - 593]
Result: 49.6

Ask: Check AUAAAACAUGAGGAUCACCCAUGUCCGACAAAUCAAGGAUAUGAGAGCCUAACCAGGCUGUUAGAAGGUGAAAGAU [Riteat] too.
Result: 192

Ask: And GAAAAACAUGAGGAUCACCCAUGUAGAAAUAUGGAAGGAUAUACAAAGACGAAAGUCAAAGUAGAAGGUCUAAAAG [Mat - Same State 1 - Eli mod - D13] ?
Result: 19.8

Ask: Cool, now ACUAUACAUGAGGAUCACCCAUGUUAGCUGGGCGAAGGAUAUGUAGAUGGAUAAAAAUAUGCAGAAGGUCGAUAAC [JR_SS001_Sub210]
Result: 77.2

Ask: Cool, now AAUACACAUGAGGAUCACCCAUGUAGAAAGAAGGCAGGAUAUCAGAUCCACAUGUGAUAAUGAGAAGGGCCAAUAA [SS 1 Tesla 9]
Result: 102

* * *

# Test system: MS2 coat protein
# Assay Explanation: apparent KD of MS2 coat protein; designed switch direction (-1 OFF switch, 1 ON switch): 1; higher = weaker reporter binding
# Setup Conditions: input ligand: FMN 200 uM
Value Kind: apparent KD of MS2 coat protein (µM)
Use µM as the unit, but write only the number.

Below, 3 sequences whose answers are already recorded.
• GCUCGAUGAGCUGUUUACAUGAGGAUCACCCAUGUAAAUGGGCAGGAUAUUUACGUGCUUUGUGUAGAGAAGGGCCCAUCGAGC [SameState NG3 #76] (Eterna round: R96, puzzle: Same State NG 3) = 0.0324
• UGGCUCAGACUAGGAUAUAUGCGAUCACAUGAGGAUCACCCAUGUCUCGAGCUUCGGCUCGAGGCAUAGAAGGAGUCUGAGCCU [SSNG2/4-D3] (Eterna round: R96, puzzle: Same State NG 2) = 0.0148
• AGCCUGAGUCGAGGAUAUUAUGGAUCCUCUAAUACAUGAGGAUCACCCAUGUAAUUAAUUAUACAUGAGAAGGCGACUCAGGCA [SSNG2/12-A3] (Eterna round: R96, puzzle: Same State NG 2) = 0.0987

Ask: Which apparent KD of MS2 coat protein is reported with MS2 coat protein for this entry: UUUAGCGUUACAGGAUAUGGUGAGGAUUACCCACUAGAAGGGUAAACAUGUGCGUCGGACAUGAGGAUCACCCAUGUAGGGCGU (Eterna round: R96, puzzle: Same State NG 1) ?
Result: 0.0284

Ask: Quick one: GCGAGCGUACUUGCAACAUGAGGAUCACCCAUGUUAACUGGACAGGAUAUGGUACCGUUUCGGUACCAGAAGGGUUCCUUCAUG [JL SSNG3 3.60] (Eterna round: R96, puzzle: Same State NG 3)
Result: 0.167

Ask: Now try AGCCGAGACACAGGAUAUAGAUGUCUACAUGAGGAUCACCCAUGUAGCAACACGUGGUAGUGAUUCUAGAAGGGUGCUCGGCGC [Omei SS(NG)2 Cv10] (Eterna round: R96, puzzle: Same State NG 2) .
Result: 0.0131
